Literature compilation of pIC50 measurements on Platelet-derived growth factor receptor beta (Homo sapiens, UniProt P09619).
pIC50: −log10 of the molar value.

NCC1CC(n2cc(-c3ccc4[nH]ccc4c3)c3c(N)ncnc32)C1 (stereo not shown) | 6.82
Cc1ccc(F)c(NC(=O)Nc2cccc(C#Cc3ccc4nccn4n3)c2)c1 | < 5.00
CCn1cc2ncc(N[C@@H](C)c3cc(NC(=O)Cc4ccc(C)cn4)c(F)cc3F)nc2n1 | ≤ 6.00
CCn1cc2ncc(N[C@@H](C)c3cc(NC(=O)c4ccc(CN5CCOCC5)c(Cl)c4)ccc3F)nc2n1 | > 6.52
O=C(Cc1ccc(F)c(C(F)(F)F)c1)Nc1cccc(Oc2ccnc(-c3nnco3)c2)c1 | < 5.00

query: Param readout = pIC50; param system = Platelet-derived growth factor receptor beta (Homo sapiens, UniProt P09619); param query = `CCNc1ncc(C(=O)Nc2cccc([C@H](C)Nc3cnc4cn(CC)nc4n3)c2)cc1Cl` ; response: value
result: > 6.52

query: Param readout = pIC50; param system = Platelet-derived growth factor receptor beta (Homo sapiens, UniProt P09619); param query = `Cc1cc(C(=O)Nc2ccc(F)c([C@H](C)Nc3cnc4cnn(C)c4n3)c2)ccc1CN1CCN(C)CC1` ; response: value
result: > 6.52

query: Param readout = pIC50; param system = Platelet-derived growth factor receptor beta (Homo sapiens, UniProt P09619); param query = `Cc1ccc(NC(=O)c2cccc(C(F)(F)F)c2)cc1NC(=O)N(CCCN1CCCC1=O)c1cc(N)ncn1` ; response: value
result: 8.70

query: Param readout = pIC50; param system = Platelet-derived growth factor receptor beta (Homo sapiens, UniProt P09619); param query = `Cc1ccc(C(=O)N[C@H]2CCCC[C@@H]2O)cc1/C=C(\F)c1cncc(NCCN(C)C)c1` ; response: value
result: 8.14

query: Param readout = pIC50; param system = Platelet-derived growth factor receptor beta (Homo sapiens, UniProt P09619); param query = `Cc1cc(C(=O)Nc2cccc([C@H](C)Nc3cnc4cnn(C)c4n3)c2)cnc1O` ; response: value
result: ≤ 6.00

query: Param readout = pIC50; param system = Platelet-derived growth factor receptor beta (Homo sapiens, UniProt P09619); param query = `CCn1cc(C(=O)Nc2ccc(F)c([C@H](C)Nc3cnc4cn(CC)nc4n3)c2)cn1` ; response: value
result: > 6.52

query: Param readout = pIC50; param system = Platelet-derived growth factor receptor beta (Homo sapiens, UniProt P09619); param query = `Cc1cncc(C(=O)Nc2cccc([C@H](C)Nc3cnc4ccccc4n3)c2)c1` ; response: value
result: > 6.52

query: Param readout = pIC50; param system = Platelet-derived growth factor receptor beta (Homo sapiens, UniProt P09619); param query = `CCn1cc2ncc(N[C@@H](C)c3cccc(NC(=O)c4cnc(N5CCOCC5)s4)c3)nc2n1` ; response: value
result: 6.00 to 6.52

query: Param readout = pIC50; param system = Platelet-derived growth factor receptor beta (Homo sapiens, UniProt P09619); param query = `Cc1ccc(C(=O)N[C@H]2CCCC[C@@H]2O)cc1CNc1cncc(-c2cccnc2)c1` ; response: value
result: 6.68

query: Param readout = pIC50; param system = Platelet-derived growth factor receptor beta (Homo sapiens, UniProt P09619); param query = `CC(=O)Oc1cccc(C(=O)Nc2cccc([C@H](C)Nc3cnc4cnn(C)c4n3)c2)c1` ; response: value
result: > 6.52

query: Param readout = pIC50; param system = Platelet-derived growth factor receptor beta (Homo sapiens, UniProt P09619); param query = `CCn1cc2ncc(N[C@@H](C)c3cccc(NC(=O)c4ccc(N5CCOCC5)c(C)c4)c3)nc2n1` ; response: value
result: > 6.52
